Test system: P. falciparum W2 clone (CQ-resistant and mefloquine-sensitive)
assay: ELISA anti-HRPII assay, W2 clone
Assay type: cell-based
details: Plasmodium falciparum, W2; dose that inhibits 50% of blood parasites growth; three or four experiments; read-out: IC50 HRPII, W2 (CQ resistant)
measured-parameter: IC50 (nM)
State just the number; it will be interpreted in nM.

IC50 of NCCNCCNc1ccnc2cc(Cl)ccc12 [MAQ] , assay on P. falciparum W2 clone (CQ-resistant and mefloquine-sensitive), is 260

* * *

Test system: P. falciparum W2 clone (CQ-resistant and mefloquine-sensitive)
assay: 3H hypoxanthine incorporation, W2 clone
Format: cell-based
details: Plasmodium falciparum, W2; dose that inhibits 50% of blood parasites growth; three or four experiments; read-out: IC50 Hypoxanthine, W2 (CQ resistant)
Procedure: Human erythrocytes (A^+) and serum blood group A+ were kindly donated by Center of Hemotherapy and Hemathology of Minas Gerais (HEMOMINAS). Immediately before the tests, ring stage-parasites were synchronized in sorbitol. […] The [^3H]-hypoxanthine assay was performed at 1% parasitemia and 1% hematocrit and the level of isotope incorporation was read in a beta-counter (PerkinElmer, Waltham, MA, EUA). […]
measured-parameter: IC50 (nM)
Unit nM implied. Number only.

Quick note, IC50 for `NCCNCCNc1ccnc2cc(Cl)ccc12` landed at 320

* * *

Tested on: P. falciparum W2 clone (CQ-resistant and mefloquine-sensitive)
assay: ELISA anti-HRPII assay, W2 clone
Assay type: cell-based
details: Plasmodium falciparum, W2, read-out: IC50 HRPII, W2 (CQ resistant)
Procedure: Human erythrocytes (A^+) and serum blood group A+ were kindly donated by Center of Hemotherapy and Hemathology of Minas Gerais (HEMOMINAS). Immediately before the tests, ring stage-parasites were synchronized in sorbitol. […] The [^3H]-hypoxanthine assay was performed at 1% parasitemia and 1% hematocrit and the level of isotope incorporation was read in a beta-counter (PerkinElmer, Waltham, MA, EUA). […]
measured-parameter: pIC50
// field semantics: pIC50 = negative decimal log of concentration (mol/L)

# pIC50 (compound: CCN(CC)CCCC(C)Nc1ccnc2cc(Cl)ccc12 (stereo not shown) ) is 6.92

* * *

System: P. falciparum W2 clone (CQ-resistant and mefloquine-sensitive)
assay: 3H hypoxanthine incorporation, W2 clone
Assay type: cell-based
details: Plasmodium falciparum, W2, read-out: IC50 Hypoxanthine, W2 (CQ resistant)
measured-parameter: IC50 (µM)
Return type: number; implicit unit µM.

compound CCN(CC)CCCC(C)Nc1ccnc2cc(Cl)ccc12 (stereo not shown) , IC50 observed: 0.18

* * *

Tested on: P. falciparum 3D7 strain (CQ-sensitive)
assay: ELISA anti-HRPII assay, 3D7 strain
Assay type: cell-based
details: Plasmodium falciparum, 3D7, read-out: IC50 HRPII, 3D7 (CQ sensitive)
measured-parameter: IC50
Record the result as a number with its unit.

The molecule listed as CCN(CC)CCCC(C)Nc1ccnc2cc(Cl)ccc12 (stereo not shown) has a reported IC50 of 6.9 nM

Recorded values, source paper PMC3359361.
